Just for reference, patent US6683107B2 is where these values come from.

# System Name: human recombinant PTP1B (hPTP1B) (Homo sapiens, UniProt P18031)
# Assay Overview: Inhibition of tri-phosphorylated insulin receptor dodecaphosphopeptide dephosphorylation by hPTP1B (malachite green phosphate detection)
# Condition: recombinant PTP1B, insulin receptor 1142-1153 triphosphopeptide substrate, 37° C., 30 min, pH 7.4
Task for the reader: assign each of the following compounds its reported pIC50.
# log scale: pIC50 equals minus log10 of the concentration in mol/L

Problem: For human recombinant PTP1B (hPTP1B) (Homo sapiens, UniProt P18031), provide pIC50 of Cc1sc(Cc2ccc(Br)cc2)c(C(=O)c2ccc(OS(=O)(=O)c3ccc(C(=O)O)c(O)c3)c(C3CCCC3)c2)c1C please.
Result: 6.83

Problem: Test system human recombinant PTP1B (hPTP1B) (Homo sapiens, UniProt P18031); read-out pIC50; what value for Cc1cc(C(=O)c2c(Cc3ccccc3)oc(C)c2C)cc(-c2ccccc2)c1OS(=O)(=O)c1ccc(C(=O)[O-])c(O)c1.[Na+] [Example 7, sodium salt] ?
Result: 6.74

Problem: Could you share what pIC50 was measured for CCCCc1oc2ccccc2c1C(=O)c1cc(-c2ccccc2)c(OS(=O)(=O)c2ccc(C(=O)O)c(O)c2)c(-c2ccccc2)c1 , tested on human recombinant PTP1B (hPTP1B) (Homo sapiens, UniProt P18031)?
Result: 6.89

###

# System Name: human recombinant PTP1B (hPTP1B) (Homo sapiens)
# Sequence (P18031 1-435): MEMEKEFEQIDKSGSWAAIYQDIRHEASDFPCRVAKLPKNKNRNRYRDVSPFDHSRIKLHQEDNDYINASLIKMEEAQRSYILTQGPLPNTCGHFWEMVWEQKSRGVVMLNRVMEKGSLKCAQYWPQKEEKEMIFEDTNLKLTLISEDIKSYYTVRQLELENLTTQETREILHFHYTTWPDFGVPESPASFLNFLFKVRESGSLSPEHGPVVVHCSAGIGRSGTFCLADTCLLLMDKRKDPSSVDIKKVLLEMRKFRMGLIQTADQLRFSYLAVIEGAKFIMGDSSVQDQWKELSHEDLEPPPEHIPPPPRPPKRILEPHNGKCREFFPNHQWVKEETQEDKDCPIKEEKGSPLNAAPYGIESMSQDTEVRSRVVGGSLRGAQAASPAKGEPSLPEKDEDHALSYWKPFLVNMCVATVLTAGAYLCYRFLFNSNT
# Assay Overview: Inhibition of tri-phosphorylated insulin receptor dodecaphosphopeptide dephosphorylation by hPTP1B (malachite green phosphate detection)
# Condition: recombinant PTP1B, insulin receptor 1142-1153 triphosphopeptide substrate, 37° C., 30 min, pH 7.4
So basically, if IC50 comes in under 200 nM it's Fulfilled, and if it's 200 nM or more it's Not fulfilled.

Problem: Check if IC50 falls below 200 nM for Cc1oc(Cc2ccccc2)c(C(=O)c2cc(C(C)C)c(OS(=O)(=O)c3ccc(C(=O)O)c(O)c3)c(C(C)C)c2)c1C .
Result: Fulfilled

Problem: Quick check: does Cc1oc(Cc2ccccc2Br)c(C(=O)c2ccc(OS(=O)(=O)c3ccc(C(=O)O)c(O)c3)c(C3CCCC3)c2)c1C have IC50 under 200 nM?
Result: Not fulfilled

Problem: Would you kindly verify if IC50 of Cc1oc(Cc2cccc(Br)c2)c(C(=O)c2cc(C(C)C)c(OS(=O)(=O)c3ccc(C(=O)O)c(O)c3)c(C(C)C)c2)c1C is strictly less than 200 nM?
Result: Not fulfilled

Problem: Dear colleague, could you confirm whether IC50 of O=C(O)c1ccc(S(=O)(=O)Oc2ccc(CCc3c(Cc4ccccc4)sc4ccccc34)cc2)cc1O falls below 200 nM? Thanks.
Result: Fulfilled

Problem: For the compound Cc1sc(Cc2ccccc2)c(C(=O)c2ccc(OS(=O)(=O)c3ccc(C(=O)O)c(O)c3)c(C3CCCC3)c2)c1C , is IC50 under 200 nM?
Result: Not fulfilled

Problem: Lab note: confirm whether the reported IC50 for this compound is below 200 nM, equality not counting. compound: Cc1oc(Cc2ccccc2Br)c(C(=O)c2cc(C(C)C)c(OS(=O)(=O)c3ccc(C(=O)O)c(O)c3)c(C(C)C)c2)c1C
Result: Fulfilled

Problem: Is IC50 of CCCCc1oc2ccccc2c1CCc1ccc(OS(=O)(=O)c2ccc(C(=O)O)c(O)c2)cc1 strictly below 200 nM?
Result: Fulfilled

Problem: Is it true that IC50 reported for Cc1oc(Cc2ccc3ccccc3c2)c(C(=O)c2cc(C(C)C)c(OS(=O)(=O)c3ccc(C(=O)O)c(O)c3)c(C(C)C)c2)c1C is less than 200 nM?
Result: Fulfilled

Problem: Answer whether the compound Cc1oc(Cc2ccc(Br)cc2)c(C(=O)c2cc(C(C)C)c(OS(=O)(=O)c3ccc(C(=O)O)c(O)c3)c(C(C)C)c2)c1C has IC50 strictly less than 200 nM
Result: Fulfilled

Problem: Quick check: IC50 of CCc1oc2ccccc2c1C(=O)c1cc(C)c(OS(=O)(=O)c2ccc(C(=O)O)c(O)c2)c(C)c1 under 200 nM?
Result: Not fulfilled

Problem: Item CCc1oc2ccccc2c1C(=O)c1cc(Br)c(OS(=O)(=O)c2ccc(C(=O)O)c(O)c2)c(Br)c1 : IC50 beneath 200 nM, strictly?
Result: Not fulfilled

Problem: Quick check: IC50 of CCCCc1oc2ccccc2c1Cc1ccc(OS(=O)(=O)c2ccc(C(=O)O)c(O)c2)cc1 under 200 nM?
Result: Not fulfilled

Problem: Below 200 nM on IC50? Entry CC(=O)Oc1cc(S(=O)(=O)Oc2ccc(C(=O)c3c(Cc4ccccc4)sc(C)c3C)cc2C2CCCC2)ccc1C(=O)O
Result: Not fulfilled

Problem: Strictly below 200 nM in IC50? CC(=O)Oc1cc(S(=O)(=O)Oc2ccc(C(=O)c3c(Cc4ccccc4Br)oc(C)c3C)cc2C2CCCC2)ccc1C(=O)O
Result: Not fulfilled
